B1: EHEE_rd2_0196 (parent)
chain: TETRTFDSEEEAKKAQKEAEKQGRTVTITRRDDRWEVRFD

Variants of: B1
Assay Notes: folding stability dG (cDNA display proteolysis); higher = more stable
Experimental Setup: PBS, room temperature
Decide using folding stability dG: a value greater than or equal to 1 kcal/mol is MET, a smaller one is NOT MET.

Answered cases to consult:
Mutation String | Qualitative Label
E9L | MET
Q22R | MET
V37W | NOT MET
D40Y | MET
V37E | NOT MET

Now consider a different variant.
Problem: Is the recorded value of folding stability dG equal to or greater than 1 kcal/mol for this variant? `I28T`
Result: MET
